Cited source for all entries: patent US6191282A

Target: isolated fibrinogen receptor (glycoprotein IIb/IIIa) (Homo sapiens, UniProt P05106+P08514)
Construct: isolated from human thrombocytes and immobilized in microtitre plates; from tissue; host or cells: human thrombocytes (platelets), receptor isolated
Sequence (P08514 32-887 limits assumed): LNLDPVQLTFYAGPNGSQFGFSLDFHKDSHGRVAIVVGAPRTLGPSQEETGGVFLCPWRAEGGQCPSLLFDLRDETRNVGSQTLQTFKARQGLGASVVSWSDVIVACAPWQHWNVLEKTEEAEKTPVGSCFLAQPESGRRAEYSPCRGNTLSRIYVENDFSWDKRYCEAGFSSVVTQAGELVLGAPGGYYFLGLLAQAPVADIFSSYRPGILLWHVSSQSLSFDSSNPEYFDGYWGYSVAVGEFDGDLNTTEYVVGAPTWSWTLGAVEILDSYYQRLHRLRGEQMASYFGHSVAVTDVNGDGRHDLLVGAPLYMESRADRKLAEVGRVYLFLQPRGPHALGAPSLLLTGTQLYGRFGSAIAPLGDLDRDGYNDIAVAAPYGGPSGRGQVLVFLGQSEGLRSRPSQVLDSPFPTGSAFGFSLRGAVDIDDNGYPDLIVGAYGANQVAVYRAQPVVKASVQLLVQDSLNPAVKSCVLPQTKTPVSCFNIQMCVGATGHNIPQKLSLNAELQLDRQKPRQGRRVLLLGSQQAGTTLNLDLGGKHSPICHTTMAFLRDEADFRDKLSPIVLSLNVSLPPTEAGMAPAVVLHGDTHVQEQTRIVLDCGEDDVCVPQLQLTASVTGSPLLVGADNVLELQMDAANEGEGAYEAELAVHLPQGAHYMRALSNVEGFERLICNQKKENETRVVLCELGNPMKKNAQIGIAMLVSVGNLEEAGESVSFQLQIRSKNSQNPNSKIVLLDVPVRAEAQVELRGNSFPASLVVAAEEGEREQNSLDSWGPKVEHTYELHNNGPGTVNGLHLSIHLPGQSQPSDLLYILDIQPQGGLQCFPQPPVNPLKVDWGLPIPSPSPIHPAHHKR
Sequence (P08514 891-1039 partner limits assumed): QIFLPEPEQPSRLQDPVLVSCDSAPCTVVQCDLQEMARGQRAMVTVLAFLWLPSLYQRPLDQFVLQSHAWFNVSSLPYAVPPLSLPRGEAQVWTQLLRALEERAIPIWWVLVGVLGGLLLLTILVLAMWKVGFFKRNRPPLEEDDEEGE
Sequence (P05106 27-788): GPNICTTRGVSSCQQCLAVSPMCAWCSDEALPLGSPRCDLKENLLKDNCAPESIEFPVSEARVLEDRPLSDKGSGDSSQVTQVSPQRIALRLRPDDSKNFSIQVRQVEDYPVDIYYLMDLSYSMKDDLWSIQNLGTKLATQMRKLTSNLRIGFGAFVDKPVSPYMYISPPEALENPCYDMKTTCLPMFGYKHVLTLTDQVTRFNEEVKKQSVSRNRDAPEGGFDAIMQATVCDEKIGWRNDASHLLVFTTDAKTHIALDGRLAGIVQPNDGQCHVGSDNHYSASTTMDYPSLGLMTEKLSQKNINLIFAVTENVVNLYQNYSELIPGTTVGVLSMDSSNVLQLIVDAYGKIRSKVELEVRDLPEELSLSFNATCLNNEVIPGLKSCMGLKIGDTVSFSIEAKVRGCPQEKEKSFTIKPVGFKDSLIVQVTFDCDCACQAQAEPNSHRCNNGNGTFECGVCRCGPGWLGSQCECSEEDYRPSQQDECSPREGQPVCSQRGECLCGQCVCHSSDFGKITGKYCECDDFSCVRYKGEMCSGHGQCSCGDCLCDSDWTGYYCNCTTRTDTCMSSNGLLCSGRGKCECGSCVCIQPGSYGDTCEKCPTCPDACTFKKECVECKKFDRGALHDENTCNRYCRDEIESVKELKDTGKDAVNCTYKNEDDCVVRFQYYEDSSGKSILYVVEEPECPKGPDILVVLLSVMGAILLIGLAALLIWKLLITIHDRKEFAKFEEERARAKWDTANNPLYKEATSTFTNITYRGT
Assay: Inhibition of 125I-fibrinogen binding to the isolated, immobilized receptor (glycoprotein IIb/IIIa) (Test method 3)
Conditions: isolated receptor immobilized in microtitre plates; read-out: Ki, inhibition of the binding of 125I-fibrinogen, ADP-stimulated
Counter-ions that a name gives are not always drawn.
Entries annotated with measured log10 of Ki
Observed property: log10 of Ki (log10 of the value in nM)

- Compound: "CC1(c2ccc(C(=N)N)cc2)NC(=O)N(CC(=O)N[C@@H](CC(=O)O)c2ccccc2)C1=O (single isomer, unassigned) [Example 58]"
  Quantitative readout: -0.76
- Compound: "N=C(N)c1ccc(C2(C3CC3)NC(=O)N(CC(=O)N[C@@H](CC(=O)O)C(=O)N[C@H](C(=O)O)c3ccccc3)C2=O)cc1 (stereo partly drawn)"
  Quantitative readout: -0.93
- Compound: "CC1(c2ccc(C(=N)N)cc2)NC(=O)N(CC(=O)NC(CC(=O)O)c2ccccc2)C1=O (racemic) [Example 13, hydrochloride]"
  Quantitative readout: -0.13
- Compound: "CC1(c2ccc(C(=N)N)cc2)NC(=O)N(CC(=O)N[C@@H](CC(=O)O)c2ccccc2)C1=O (stereo partly drawn) [Example 56, hydrochloride]"
  Quantitative readout: -0.31
- Compound: "CCC1(c2ccc(C(=N)N)cc2)NC(=O)N(CC(=O)N[C@@H](CC(=O)O)C(=O)N[C@H](C(=O)O)c2ccccc2)C1=O (stereo partly drawn)"
  Quantitative readout: -0.97
- Compound: "CC1(c2ccc(C(=N)N)cc2)NC(=O)N(CC(=O)NC(CC(=O)O)c2cccc([N+](=O)[O-])c2)C1=O (racemic)"
  Quantitative readout: -0.02
- Compound: "N=C(N)c1ccc(C2(Cc3ccccc3)NC(=O)N(CC(=O)N[C@@H](CC(=O)O)C(=O)N[C@H](C(=O)O)c3ccccc3)C2=O)cc1 (stereo partly drawn)"
  Quantitative readout: -1.11
- Compound: "CC1(c2ccc(C(=N)N)cc2)NC(=O)N(CC(=O)N[C@@H](CC(=O)O)c2ccccc2)C1=O (single isomer, unassigned) [Example 57]"
  Quantitative readout: 1.57
- Compound: "CC1(c2ccc(C(=N)N)cc2)NC(=O)N(CC(=O)NC(CC(=O)O)c2ccc(-c3ccccc3)cc2)C1=O (racemic)"
  Quantitative readout: 0.09
- Compound: "CC1(c2ccc(C(=N)N)cc2)C(=O)N(CC(=O)N[C@@H](CC(=O)O)C(=O)N[C@H](C(=O)O)c2ccccc2)C(=O)N1Cc1ccccc1 (stereo partly drawn)"
  Quantitative readout: -0.76
- Compound: "CC1(c2ccc(C(=N)N)cc2)NC(=O)N(CC(=O)N[C@@H](CC(=O)O)C(=O)N[C@H](C(=O)O)c2ccccc2)C1=O (stereo partly drawn)"
  Quantitative readout: -0.76
- Compound: "CC1(c2ccc(C(=N)N)cc2)NC(=O)N(CC(=O)NC(CC(=O)O)c2ccc(C(=O)O)cc2)C1=O (racemic)"
  Quantitative readout: 0.30

----------
Tested on: gel-filtered human thrombocytes
Experiment: Inhibition of the aggregation of gel-filtered human thrombocytes following stimulation with ADP or thrombin (Test method 1)
Format: cell-based
Conditions: ADP-stimulated (10 μM ADP), 1 mg/ml fibrinogen, 37° C., GFP from 2-4 donors; read-out: IC50, inhibition of thrombocyte aggregation, ADP-stimulated
pIC50: −log10 of the molar value.
# label = Yes if pIC50 >= 6 else No

- Compound: "CC1(c2ccc(C(=N)N)cc2)NC(=O)N(CC(=O)N[C@H](CC(=O)O)c2ccccc2)C1=O (single isomer, unassigned) [Example 59]"
  Class name: "No"
- Compound: "CC1(c2ccc(C(=N)N)cc2)NC(=O)N(CC(=O)N[C@@H](CC(=O)O)c2ccccc2)C1=O (single isomer, unassigned) [Example 58]"
  Class name: "Yes"
- Compound: "CC1(c2ccc(C(=N)N)cc2)NC(=O)N(CC(=O)N[C@@H](CC(=O)O)c2ccccc2)C1=O (single isomer, unassigned) [Example 57]"
  Class name: "No"
- Compound: "CC1(c2ccc(C(=N)N)cc2)NC(=O)N(CC(=O)N[C@@H](CC(=O)O)C(=O)N[C@H](C(=O)O)c2ccccc2)C1=O (single isomer, unassigned) [Example 22]"
  Class name: "Yes"
- Compound: "CCN1C(=O)N(CC(=O)N[C@@H](CC(=O)O)C(=O)N[C@H](C(=O)O)c2ccccc2)C(=O)C1(C)c1ccc(C(=N)N)cc1 (stereo partly shown)"
  Class name: "Yes"
- Compound: "CC1(c2ccc(C(=N)N)cc2)NC(=O)N(CC(=O)N[C@H](CC(=O)O)c2ccccc2)C1=O (single isomer, unassigned) [Example 60]"
  Class name: "No"
